assay: hepatitis C replication reporter changes, two-sided – Huh7 cells, luciferase reporter, HCV replication inhibitor project, primary screen (AID 1109); conditions: Huh7 HCV replicon luciferase reporter, 48 h; higher = more signal;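 note: huh7 hepatoma cells harbouring a luciferase neomycin HCV replicon reporter; luciferase luminescence as measure of HCV replicon replication; test concentration not given here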
Overview of reported z-score across a group of compounds:
Keep the answer to the number alone.

COc1ccc(C(O)C2C=CC3C(=O)N(c4ccccc4)C(=O)C3N2Nc2ccc(C#N)cc2)cc1OCc1ccccc1 (stereo unspecified)    -0.738
COc1ccc([Si](C)(C)[C@H]2[C@H](CCO)O[C@@]3(C(=O)N(Cc4cccc(N5C(=O)c6ccccc6Oc6ccccc65)c4)c4ccccc43)[C@@H]2C)cc1    -4.89
CC(C)=CCCC(C)=CC(O)C1C=CC2C(=O)NC(=O)C2N1Nc1ccc(Cl)cc1Cl (stereo unspecified)    -0.922
CCCN1C(=O)[C@@]2(c3ccc([N+](=O)[O-])cc3)CC(=O)N(CC34CC5CC(CC(C5)C3)C4)[C@@H]2c2ccc(CO)cc21    -0.767
C=CCOC(=O)[C@H]1[C@@H]2C(=O)O[C@@H](c3ccccc3)[C@@H](c3ccccc3)N2[C@@H](c2ccc(OCCOC(=O)[C@@H]3C[C@@H]4C(=O)N[C@@H](CCCCNC(C)=O)C(=O)N4[C@@H]3c3cccc(OCCO)c3)cc2)[C@]12C(=O)Nc1ccccc12    -1.48

Attention now turns to another entry.
Requested read-out: z-score. Entry: CN(C)C(=O)[C@@]1(Cc2ccccc2CN=[N+]=[N-])COC(c2ccc(OCCCO)cc2)=N1 -2
